# Test system: T-47D breast
# procedure summary: NCI tumour cell line growth inhibition, 48 h
measure name: TGI (µM)
Just the number in µM, nothing appended.

Before answering, review these 3 worked examples.
CC(C)(CO)CNc1nc(N)nc(Cl)c1/C=N/O : 38.9
COc1ccc2c(=O)oc3c(OC)cc(CCN(C)C)c4c(=O)oc1c2c34 : 18
CC1(C)CCc2c(ccc(C(=O)/C=C/c3ccc(O)cc3)c2O)O1 : 21

Now take the following molecule into account.
Record C=C1C(=O)[C@@]23CC[C@@H]4[C@@]5(C)CCC[C@@]4(OC5=O)[C@@]2(C)CC[C@@H]1C3 , field TGI: 57.9

###

# Tested on: SF-268 CNS
# procedure summary: NCI tumour cell line growth inhibition, 48 h
measure name: TGI

COc1c2occc2c(N)c2ccc(=O)oc12 : > 100 µM
COc1ccc(-c2cc(=O)oc3c4c(ccc23)OCN(Cc2ccc(F)cc2)C4)cc1 : 34.8 µM
COc1c(C)c(OCC=C(C)C)cc(CO)c1CO : > 100 µM
CCCCCCn1c(-c2ccc(C(=O)O/N=C(\N)c3ccc4c(c3)OCO4)cc2)nc(-c2ccccc2)c1-c1ccccc1 : 4.64 µM
CCSc1nc(N=Cc2ccccc2O)c2cn[nH]c2n1 : 77.4 µM

Query CCCN(CCC)c1c([N+](=O)[O-])cc(C(=O)N(CC)CC)cc1[N+](=O)[O-] yields TGI of > 100 µM

response.value for CC1OC(O[C@H]2C3C=CO[C@@H](OC4OC(CO)C(O)C(O)C4O)C3[C@@]3(COC(=O)/C=C/c4ccccc4)O[C@@H]23)C(O)C(O)C1O (stereo not given in full) (field: TGI) = > 100 µM

Given item CC12c3c4ccc(C=O)c3Oc3ccc(C=O)c(c31)Oc1ccc(C=O)c(c12)O4 , the value recorded as its TGI is > 25 µM

TGI for O=c1c2c(no[n+]2[O-])c2ccccc2n1-c1ccccc1 is 20.1 µM

Reported TGI ( CC1=C(C#N)c2nc3ccccc3n2C(=O)C1(C)CCO (stereo not given) ) = > 100 µM

Lab book: TGI of CN(C)CCN1CCC(Cc2ccccc2)CC1 noted as > 80 µM

Given item CN1Nc2ccccc2CC1=O , the value recorded as its TGI is > 100 µM

###

# System: HS 578T breast
# procedure summary: NCI tumour cell line growth inhibition, 48 h; in the data active = GI50 below about 0.43 µM; inactive = the rest
Where a SMILES comes first, the peptide text is derived from it. The star is where a group is joined. Palmitoyl = CCCCCCCCCCCCCCCC(=O)*
Choose the fitting class; nothing outside T (active), F (inactive) is accepted.

Completed entries (count: 6):
COc1cc2c(cc1OCCCN1CCN(CCCOc3cc4c(cc3OC)C(=O)N3CC(F)(F)C[C@H]3C=N4)CC1)N=C[C@@H]1CC(F)(F)CN1C2=O : F
CCOC(=O)Nc1c(C)nc2ccccn12 : F
C=CC12CCN(CC1)C(C(O)c1ccnc3ccc(OC)cc13)C2 (stereo not drawn) : F
CCOC(=O)c1c(C)c2c(n1Cc1ccccc1)CSCC2=O : F
COC(=O)c1c2c(c(C)[n+]([O-])c1C)C(=O)C(NCc1ccc(Br)cc1)=CC2=O : F
O=C(Nc1nc(-c2c[nH]c3ccccc23)cs1)c1n[nH]c(=O)c2ccccc12 : F

query: Field: outcome | Entry: CCCCCCCCCCCCCCCC(=O)N1CCCC1C(=O)NCC(=O)NC(Cc1ccccc1)C(=O)N1CCCC1C(=O)NC(CO)C(=O)NC(Cc1ccc(O)cc1)C(=O)NC(CCCCN)C(=O)NC(CC(C)C)C(=O)NC(CCCN=C(N)N)C(=O)N1CCCC1C(=O)NCC(N)=O (stereo not drawn) (Palmitoyl-PGFPSYKLRPG-NH2; configuration not given here)
result: F

query: Any idea what this test logged for O=C(Nc1ncc(Cc2cccc(C(F)(F)F)c2)s1)c1ccc2c(c1)OCCO2 ?
result: T
